Parameter kon: see the listing below.
system.tested: T1, recombinant human soluble gpNMB (recombinant human gpNMB-FLAG-His) (human, UniProt Q14956 23-498)
T1 sequence: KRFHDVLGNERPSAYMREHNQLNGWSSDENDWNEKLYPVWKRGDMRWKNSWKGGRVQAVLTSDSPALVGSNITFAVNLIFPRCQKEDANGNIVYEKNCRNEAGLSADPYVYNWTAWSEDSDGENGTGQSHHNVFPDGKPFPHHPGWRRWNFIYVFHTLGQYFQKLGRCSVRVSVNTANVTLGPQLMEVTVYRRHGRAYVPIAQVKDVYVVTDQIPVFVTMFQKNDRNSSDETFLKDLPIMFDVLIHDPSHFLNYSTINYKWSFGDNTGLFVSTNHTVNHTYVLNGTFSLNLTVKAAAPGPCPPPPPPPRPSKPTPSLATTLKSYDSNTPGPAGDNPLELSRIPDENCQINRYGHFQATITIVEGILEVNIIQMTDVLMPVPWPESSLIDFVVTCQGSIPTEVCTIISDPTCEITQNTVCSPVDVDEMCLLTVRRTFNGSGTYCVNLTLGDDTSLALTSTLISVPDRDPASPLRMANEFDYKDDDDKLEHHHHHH
method.summary: SPR, antibody 100 nM over captured gpNMB-FLAG-His, 25C
Field format: number, assumed M⁻¹ s⁻¹, no unit text.

Consider the following illustrative entries.
GPN18-1 (antibody, V domains shown, monoclonal with mouse IgG constant regions) VH: QVTLKESGPGILQPSQTLSLTCSFSGFSLSTSVMGVGWIRQPSGKGLEWLADIWWDDDKDYNPSLKSRLTISKDTSKNQVFLKIASVDTADTATYYCARAYYSNYEYYGMDYWGQGTSVTVSS VL: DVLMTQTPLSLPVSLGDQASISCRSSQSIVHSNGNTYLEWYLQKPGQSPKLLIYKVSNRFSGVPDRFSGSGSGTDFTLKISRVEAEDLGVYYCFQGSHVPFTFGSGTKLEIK    38000
GPN05-1 (antibody, V domains shown, monoclonal with mouse IgG constant regions) VH: QVQLQQSGAELVRPGTSVKVSCKASGYAFSNHLIEWVKQRPGQGLEWIGVINPGSGGTNYIEKFKGKATLTADKSSSTAYMQLSSLTSDDSAVYFCARGANWDVGFAYWGQGTLVTVSA VL: EIQMTQSPSSMSASLGDRITITCQATQDIVKNLNWYQQKPGKPPSFLIYYATELAEGVPSRFSGSGSGSDFSLTISNLESEDFADYYCLQFHEFPRTFGGGTKLEIK    48000
GPN18-2 (antibody, V domains shown, monoclonal with mouse IgG constant regions) VH: QVTLKESGPGILQPSQTLSLTCSFSGFSLSTSVMGVGWIRQPSGKGLEWLADIWWDDDKDYNPSLKSRLTISKDTSKNQVFLKIASVDTADTATYYCARTYYSNYEYYGMDYWGQGTSVTVSS VL: DVLMTQTPLSLPVSLGDQASISCRSSQTIILSNGNTYLEWYLQKPGQSPKLLIYKVSNRFSGVPDRFSGSGSGTDFTLKISRVEAEDLGVYYCFQGSHVPFTFGSGTKLEIK    31000
GPN18-5 (antibody, V domains shown, monoclonal with mouse IgG constant regions) VH: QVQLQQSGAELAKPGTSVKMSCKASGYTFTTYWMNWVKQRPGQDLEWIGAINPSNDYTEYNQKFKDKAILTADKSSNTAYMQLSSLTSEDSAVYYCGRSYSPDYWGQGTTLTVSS VL: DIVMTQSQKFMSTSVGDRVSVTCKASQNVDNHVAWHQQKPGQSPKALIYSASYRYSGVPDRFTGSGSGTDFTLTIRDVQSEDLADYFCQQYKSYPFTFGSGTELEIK    150000
GPN18-4 (antibody, V domains shown, monoclonal with mouse IgG constant regions) VH: QVQLQQSGAELTKPGTSVKMSCKASGYTLSSYWMNWIKQRPGQGLEWIGTINPSNNYTAYNLKFKDKAMLTADKSSSTAYMQLSSLTSEDSAVYYCATWGYWGQGTTLTVSS VL: DIVMTQSHKFMSTSVGDRVSITCKASQDVSTAVAWHQQKPGQPPKLLIYSASYRYTGVPDRFTGSGSGTDFTFTISSVQTEDLAIYYCQHHYTTTWTFGGGTKLEIR    47000

-- ask Consider the binder shown here: GPN15-2 (antibody, V domains shown, monoclonal with mouse IgG constant regions) VH: QVQLQQPGAELVKPGASVKMSCKASGYTFTNHNMHWVKQTPGQGLEWIGAFYTGNGDTSYNQKFKGKATLTADKSSSTAYIQLSSLTSEDSAVYYCARERYDGYYIAMDYWGQGTSVTVSS VL: QIVLTQSPAFMSVSPGEKVTMTCSASSSVYYMFWYQQKPRSSPKPWIYLTSKLASGVPARFSGSGSGTSYSVTISSMEAEDAATYYCQQWSSNPQWTFGGGTKLEIK What is its recorded kon?
-- reply 170000

-- ask Consider the binder shown here: GPN11-10 (antibody, V domains shown, monoclonal with mouse IgG constant regions) VH: QVNLLQSGAALVKPGASVRLSCKTSGYTFTDCYIHWVRQSHGKSLEWIGFINPNSGYTFYNEKFKSKATLTVAKSTNTAYMELSRLTSEDSATYFCTRGDYYTSNLYDWFAYWGQGTLVTVSS VL: DTVMTQSPASMSTSVGERVTVNCKASQTVGTVVAWFQQKPGQSPKRLIYWATNRHTGVPDRFTGSGFGRDFSLTISNVEAEDLAVYYCLQYGSVPPTFGGGTKLELK What is its recorded kon?
-- reply 81000
